- MEASUREMENT_NOTES: Unbound fraction in 100% human serum
- Assay type: ADME, cell-free
PROPERTY: fraction unbound
Give the figure only, with no unit attached.

Input line: Fill blank: measured fraction unbound of the compound O=C(O)[C@@H]1C[C@H](Oc2nc3c(F)c(-c4ccc(-c5ccccc5)cc4)c(F)cc3[nH]2)CCO1 (single isomer, unassigned) is ____.
Output line: 0.1
